- Tested on: P388 leukemia ip, CD2F1 mice, survival T/C
- Method: NCI In Vivo Anticancer Drug Screen. Data for tumor model P388 Leukemia (intraperitoneal) in CD2F1 (CDF1) mice
- Stated conditions: endpoint: median survival time; dose: 100.0 mg/kg/injection; schedule: Q01DX009 (ip); vehicle: saline; higher = longer survival
Toxic doses and inconclusive results are not listed.
Experimental endpoint: T/C

Exercise: For CCCCC(O)c1ccc[n+]([O-])c1 (stereo not given) , what is its reported T/C?
Key: 94 % of control

Exercise: Item: "COc1cc(/C=C/C(=O)N2CCN(CC(=O)N3CCCC3)CC2)cc(OC)c1OC"
Key: 94 % of control
